Reported values of pIC50 for individual entries
System: A549 (lung cancer cell)
Method notes: MTT tumor cell proliferation assay on A549 lung cancer cells
Type: cell-based
Experimental setup: Homo sapiens, 48 h, 44 h culture + 4 h MTT, read at 570 nm, sample concentration 0.5 mg/mL (water as solvent)
Experimental: Biological activity assay was conducted on compounds I-d to I-f prepared in the above examples: Original osimertinib was used as control. […] Inhibitory concentration 50 (IC50) values of 6H-imidazo[4,5,1-ij]quinolone derivatives with structures as shown in formulas I-d to I-f and control drug original osimertinib against A549 (lung cancer cell) were detected.
pIC50: −log10 of the molar value.
Property name: pIC50

INSERT INTO measurements (compound, experimental_target, measurement) VALUES
  ('COc1cc2nc(-c3ccccc3)n3ccc(=O)c(c1)c23 [I-f]', 'A549 (lung cancer cell)', 4.91),
  ('O=c1ccn2c(-c3ccccc3Cl)nc3cccc1c32 [I-c]', 'A549 (lung cancer cell)', 4.79),
  ('O=c1ccn2c(-c3cccs3)nc3cccc1c32 [I-d]', 'A549 (lung cancer cell)', 5.00),
  ('O=c1ccn2c(-c3ccc(F)cc3)nc3cccc1c32 [I-b]', 'A549 (lung cancer cell)', 4.81),
  ('Cc1ccc(-c2nc3cccc4c(=O)ccn2c34)cc1 [I-a]', 'A549 (lung cancer cell)', 4.95),
  ('O=c1ccn2c(C3CC3)nc3cccc1c32 [I-e]', 'A549 (lung cancer cell)', 4.68),
  ('C=CC(=O)Nc1cc(Nc2nccc(-c3cn(C)c4ccccc34)n2)c(OC)cc1N(C)CCN(C)C [Osimertinib, osimertinib, reference compound]', 'A549 (lung cancer cell)', 5.01);
